Here's what we have: IC50 numbers for Poly [ADP-ribose] polymerase 1 (Homo sapiens, UniProt P09874).
Could you give the number and then its unit, please?

{"columns": ["Chemical String", "Val"],
 "data": [
  ["NCCCN1CCC[C@@H](c2ccc(-n3cc4cccc(C(N)=O)c4n3)cc2)C1", "48.4 nM"],
  ["C[C@]1(c2nc3c(C(N)=O)cccc3[nH]2)CCCN1CCCN", "8.4 nM"]
]}

We next turn to a different compound, shown below.
State the measured IC50 (Poly [ADP-ribose] polymerase 1 (Homo sapiens, UniProt P09874)) of NCCCC(=O)N1CCN(C(=O)c2cc(Cc3n[nH]c(=O)c4ccccc34)ccc2F)CC1 5.9 nM

* * *

- System Under Test: GDH/6PGL endoplasmic bifunctional protein (Homo sapiens)
- Sequence (O95479 whole entry): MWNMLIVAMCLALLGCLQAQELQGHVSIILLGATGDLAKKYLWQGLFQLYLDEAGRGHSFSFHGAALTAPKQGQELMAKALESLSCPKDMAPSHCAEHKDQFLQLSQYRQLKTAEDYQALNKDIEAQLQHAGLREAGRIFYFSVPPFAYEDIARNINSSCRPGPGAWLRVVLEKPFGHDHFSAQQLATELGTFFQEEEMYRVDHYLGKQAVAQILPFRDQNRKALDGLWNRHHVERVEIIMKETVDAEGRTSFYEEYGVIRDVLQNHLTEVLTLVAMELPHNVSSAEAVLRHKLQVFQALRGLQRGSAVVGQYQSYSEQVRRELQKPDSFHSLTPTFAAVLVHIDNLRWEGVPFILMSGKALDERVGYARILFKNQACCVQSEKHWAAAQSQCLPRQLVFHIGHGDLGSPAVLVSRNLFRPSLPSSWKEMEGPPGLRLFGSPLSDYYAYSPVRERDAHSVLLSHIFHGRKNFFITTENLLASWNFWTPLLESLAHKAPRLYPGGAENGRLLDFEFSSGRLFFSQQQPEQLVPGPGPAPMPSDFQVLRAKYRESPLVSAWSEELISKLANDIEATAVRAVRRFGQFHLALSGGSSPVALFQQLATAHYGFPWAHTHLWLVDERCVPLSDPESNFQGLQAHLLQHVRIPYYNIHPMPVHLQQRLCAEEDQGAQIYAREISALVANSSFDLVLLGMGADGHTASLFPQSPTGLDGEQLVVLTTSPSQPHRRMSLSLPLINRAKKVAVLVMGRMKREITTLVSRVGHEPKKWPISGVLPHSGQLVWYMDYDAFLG
- Procedure Details: H6PD Activity Assay
Observable: pIC50
Units for pIC50: none; it is -log10 of a concentration expressed in mol/L.

Specify measured pIC50 for CNCc1ccc(-c2[nH]c3cc(F)cc4c3c2CCNC4=O)cc1 . 4.74

This collection of values is drawn from BindingDB's records for doi:10.1016/j.chembiol.2016.10.011.
